- EXPERIMENTAL_PROTOCOL: Half life in human whole blood
- Format: ADME, tissue-based
QUANTITY_NAME: half-life

# lookup: half-life of `H-TCRKHRK-OH`
3 to 3.4 h

###

- EXPERIMENTAL_PROTOCOL: Inhibition of human full length HA-tagged CD95/FADD (unknown origin) protein-protein interaction transfected in HEK293T cells incubated for 4 hrs by renilla luciferase based protein-fragment complementation assay
- Format: cell-based
- CONDITION_CONTEXT: read-out: IC50
QUANTITY_NAME: pIC50
Value format note: pIC50 is -log10 of concentration (mol/L); just state the number.

C[C@@H](O)CC(=O)N(CCN)[C@@H](CS)C(=O)NCCN(C(=O)CCCCNC(=N)N)[C@@H](CCCCN)C(=O)NCCN(C(=O)CCc1c[nH]cn1)[C@@H](CCCNC(=N)N)C(=O)NCCNC(=O)CCCCCN; 3.50
CCCCCCCCCCCCCCCCCC(=O)N(CCN)[C@@H](CCCNC(=N)N)C(=O)NCCN(C(=O)CCCCCN)[C@@H](Cc1c[nH]cn1)C(=O)NCCN(C(=O)CCCCNC(=N)N)[C@@H](CCCCN)C(N)=O.O=C(O)C(F)(F)F.O=C(O)C(F)(F)F.O=C(O)C(F)(F)F.O=C(O)C(F)(F)F.O=C(O)C(F)(F)F; 4.41
N=C(N)NCCCCC(=O)N(CCNC(=O)[C@H](Cc1c[nH]cn1)N(CCNC(=O)[C@H](CCCNC(=N)N)N(CCN)C(=O)CCS)C(=O)CCCCCN)[C@@H](CCCCN)C(N)=O; 2.42
C[C@@H](O)CC(=O)N[C@@H](CS)C(=O)NCCN(C(=O)CCCCNC(=N)N)[C@@H](CCCCN)C(=O)NCCN(C(=O)CCc1c[nH]cn1)[C@@H](CCCNC(=N)N)C(=O)NCCNC(=O)CCCCCN; 3.20

# context switch: different molecule, same pIC50
Looking for the measured pIC50 of `N=C(N)NCCCCC(=O)N(CCNC(=O)[C@@H](N)CS)[C@@H](CCCCN)C(=O)NCCN(C(=O)CCc1c[nH]cn1)[C@@H](CCCNC(=N)N)C(=O)NCCNC(=O)CCCCCN` , can you help?
3.35
